experiment: Plasma and lung epithelial lining fluid (ELF) pharmacokinetics in ICR mice; assay type: in vivo; settings: ICR, mouse, lung epithelial lining fluid (ELF), ip, 20 mg/kg, 20 mg/kg IP; free-drug (protein binding 99.2%); read-out: ELF/Plasma AUC ratio
Numbered stars: 1 amine (or outer) side, 2 acyl side, 3 side chain; on linkers, the order of the positions; unused ones are H or OH. Bridge positions count the residues as written; N and C are the ends. Square brackets hold non-standard residues; d marks the D form. Peptide text beside a SMILES is read from it. * marks the point of attachment. ξ: configuration not given here. Orn(4R-OH,5R-OCH2CH2NMe3+) = C[N+](C)(C)CCO[C@@H](N[*:3])[C@H](O)C[C@H](N[*:1])C(=O)[*:2]; pTerphenylCO(4''-OnC5H11) = CCCCCOc1ccc(-c2ccc(-c3ccc(C(=O)*)cc3)cc2)cc1; hTyr(3S-OH,4S-OH) = N[C@H](C(=O)O)[C@H](O)[C@@H](O)c1ccc(O)cc1; X1 = C[C@H]1CN([*:1])C(C(=O)[*:2])C1O; Hyp = O=C(O)[C@@H]1C[C@@H](O)CN1; ξT = CC(O)C(N)C(=O)O
parameter_measured: Kp
// no unit, no text: just the number

Query: Query (molecule): CCCCCOc1ccc(-c2ccc(-c3ccc(C(=O)N[C@H]4C[C@@H](O)[C@@H](OCC[N+](C)(C)C)NC(=O)C5C(O)[C@@H](C)CN5C(=O)[C@H]([C@@H](C)O)NC(=O)[C@H]([C@H](O)[C@@H](O)c5ccc(O)cc5)NC(=O)[C@@H]5C[C@@H](O)CN5C(=O)C(C(C)O)NC4=O)cc3)cc2)cc1 (stereo partly drawn) [CD101] ({pTerphenylCO(4''-OnC5H11)}-[Orn(4R-OH,5R-OCH2CH2NMe3+)][ξT][Hyp][hTyr(3S-OH,4S-OH)]T[X1]; lactam 1-C) ; field requested: Kp
Response: 100

The origin of these recorded values is patent US20240076347A1.
